molecular target: T1, Recombinant Human PD-L1-TVMV-His (human, UniProt Q9NZQ7 19-239); assay: HTRF vs PD-1-Ig; C = IC50 0.0003-0.0099 µM
T1 construct: expressed in HEK293T cells; also called PD-L1-His; hPD-L1(19-239)-TVMV-His
T1 sequence (Q9NZQ7 other isoform, or with tags, fused parts or gaps limits assumed): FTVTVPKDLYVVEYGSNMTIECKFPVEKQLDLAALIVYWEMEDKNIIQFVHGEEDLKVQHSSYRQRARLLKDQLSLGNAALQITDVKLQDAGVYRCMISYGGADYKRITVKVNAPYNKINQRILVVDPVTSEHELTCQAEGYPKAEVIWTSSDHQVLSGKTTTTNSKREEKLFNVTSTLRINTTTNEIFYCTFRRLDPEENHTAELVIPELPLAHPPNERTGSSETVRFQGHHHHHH
Starred links: 1 amine or outer side, 2 acyl side, 3 side chain; linkers in the order of their positions; H or OH if unused. Positions of bridges follow the written chain, without caps; N, C: chain ends. Non-standard residues stand in square brackets, D forms with d. No end group written: not given here. Trp(1-CH2CO) = O=C([C@H](Cc1cn(CC(=O)[*:3])c2ccccc12)N[*:1])[*:2]; Hyp = O=C(O)[C@@H]1C[C@@H](O)CN1; NMeNle = CCCC[C@H](NC)C(=O)O; NMeA = CN[C@@H](C)C(=O)O; Pra = C#CC[C@H](N)C(=O)O
Measured IC50, listed per entry for reference.

Example results:
{"binder": "{CH2CO}-Y[NMeA]DPHQ[Hyp]WSW[NMeNle][NMeNle]ECG[Pra] (thioether N-14; not fully specified (C-terminus); printed as ClAc-Tyr-mAla-Asp-Pro-His-Gln-Hyp-Trp-Ser-Trp-mNle-mNle-Glu-Cys-Gly-[(S)-propargylglycine], also called Intermediate 1400H) [INT-1400H]", "meas.value": "0.3 to 9.9 nM"}
{"binder": "{CH2CO}-Y[NMeA]DPHK[Hyp]WK[Trp(1-CH2CO)][NMeNle][NMeNle]ECG[Pra]G (thioether N-14; not fully specified (C-terminus); printed as ClAc-Tyr-mAla-Asp-Pro-His-Lys-Hyp-Trp-Lys-“Trp”-mNle-mNle-Glu-Cys-Gly-[(S)-propargylglycine]-Gly) [INT-1400D]", "meas.value": "0.3 to 9.9 nM"}

Then this binder:
q: For the binder {CH2CO}-Y[NMeA]DPHK[Hyp]WK[Trp(1-CH2CO)][NMeNle][NMeNle]ECG[Pra]D (thioether N-14; not fully specified (C-terminus); printed as ClAc-Tyr-mAla-Asp-Pro-His-Lys-Hyp-Trp-Lys-“Trp”-mNle-mNle-Glu-Cys-Gly-[(S)-propargylglycine]-Asp, also called Intermediate 1400E) [INT-1400E] , give its measured IC50 value.
a: 0.3 to 9.9 nM
